- Target under test: T1, human Claudin 3 (human, UniProt O15551 1-220)
- T1 construct: forced expression in DG44 or Ba/F3 cells, or endogenous on MCF7 cells; four-transmembrane tight junction protein; also called hCLDN3; hCLN3
- T1 sequence: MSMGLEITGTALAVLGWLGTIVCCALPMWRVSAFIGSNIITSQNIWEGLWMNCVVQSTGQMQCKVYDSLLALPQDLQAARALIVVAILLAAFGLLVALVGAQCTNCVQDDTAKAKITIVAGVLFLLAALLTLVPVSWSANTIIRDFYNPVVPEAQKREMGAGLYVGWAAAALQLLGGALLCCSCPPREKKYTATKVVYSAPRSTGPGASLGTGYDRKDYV
- Assay comment: flow cytometry, hCLDN3/Ba/F3 cells, 2 ug/mL antibody
- Method: A monoclonal antibody was added to the respective forced expression cells, and then incubated at 4° C. for 30 minutes. […] The amount of antibodies bound per cell was measured using FACSCalibur, and the X geometric mean value, which is the geometric mean of the cell fluorescence intensity, was calculated using the accessory CellQuest Pro analysis software of FACSCalibur. […]
Measured quantity: X geometric mean

Study these solved cases before continuing.
{"Binder": "CDN04 (antibody, mouse IgG1, kappa, V domains shown, mouse monoclonal, IgG1/IgK; also called CDN4) VH: EVQLQQSGPELVKPGASMKISCKASGYSFTGYTMNWMKQGHGKNLEWIGLINPYNGGTSYNQKFKDKATLTLDKSSSSAYMELLSLTSEDSAVYYCARGSYGSSYFDYWGQGTTLTVSS VL: DIVMSQSPSSLAVSVGEKVTMSCKSSQSLLYGSNQKNYLAWYQQKPGQSPKLLIYWASTRESGVPDRFTGSGSGTDFTLTISSVKAEDLAVYYCQQYYNFPYTFGGGTKLEIKR", "X geometric mean": 366}
{"Binder": "CDN28 (antibody, mouse IgG1, kappa, V domains shown, mouse monoclonal, IgG1/IgK) VH: EVQLQQSGPELVKPGASVKISCKASGYSFTGYFMNWVKQSHGKSLEWLGRINPYNGDTFYNQKFKGKATLTVDKSSNTAHMELRSLTSEDSAVYYCARGDGYYVTSLAYWGQGTLVTVSA VL: NIVMTQSPKSMSMSVGERVTLSCKASENVVSYVSWFQQKPEQSPKLLIYGASNRYTGVPDRFTGSGSATDFTLTISSVQAEDLADYYCGQSYSYPLTFGAGTKLELKR", "X geometric mean": 1430}

Ask | Which X geometric mean value belongs to CDN38 (antibody, V domains shown) VH: EVQLQQSGPELVKPGASVKMSCKASGYSFTGYFMNWVKQSHGKSLEWIGRINPYNGDTFYNQKFKGKATLTVDKSSSTAHMELRSLTSEDSALYYCARSGNYVMDYWGQGTSVTVSS VL: DIVLTQSPASLAVSLGQSVTISCRASESVEYYGTSLMQWYQQKPGQPPKLLIYGASNVESGVPARFSGSGSGTDFSLNIHPVEEDDIAMYFCQQSRKVPWTFGGGTKLEIKR ?
Reply | 142
